B1: CPN1 (parent)
chain: RGVRRTASTPTPDDKLFQKLAKVY

Variants of: B1
Assay: protein stability index of a GFP-peptide fusion (GPS, HEK-293T) (PSI 1-6); higher = more stable;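 also: lentivirally expressed fusions sorted by FACS into six bins by GFP to DsRed ratio, PSI derived from sequencing read proportions per bin multiplied by bin number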
Conditions: c terminus: a fixed tail appended
MEASURE_NAME: protein stability index

>>> value("RGVRRTSSTPTPDDKLFQKLAKVY [A7S]")
1.97
>>> value("RGVRRWASTPTPDDKLFQKLAKVY [T6W]")
2.02
>>> value("RGVNRTASTPTPDDKLFQKLAKVY [R4N]")
1.95

// switching to the query variant
Req: For the variant RGVRRTASTPTPDDCLFQKLAKVY [K15C] , what protein stability index is on record?
Resp: 1.95

Data origin: the supplement of paper PMC10567573
